B1: Protein piccolo, residues 1058 to 1114; numbered along this chain, Q9Y6V0 (parent)
chain: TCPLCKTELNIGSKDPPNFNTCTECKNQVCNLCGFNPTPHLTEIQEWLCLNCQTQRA

variants of: B1; assay: abundance fitness (aPCA) (normalised: wild type 0, dead -1); higher = more abundant; growth selection in yeast, the domain comes from the species named; conditions: Homo sapiens
quantity_name: abundance fitness
Reply briefly: the number, and no unit.

What value of abundance fitness has been reported for the following variant? G34A
-0.083

What value of abundance fitness has been reported for the following variant? D15C
-0.152

What value of abundance fitness has been reported for the following variant? T7H
-0.168

What value of abundance fitness has been reported for the following variant? C52N
-0.876

What value of abundance fitness has been reported for the following variant? C25L
-0.846

What value of abundance fitness has been reported for the following variant? L41P
-0.037

What value of abundance fitness has been reported for the following variant? G12A
-0.361

What value of abundance fitness has been reported for the following variant? Q53D
0.099

What value of abundance fitness has been reported for the following variant? C22V
-0.733

What value of abundance fitness has been reported for the following variant? C49Y
-0.958

What value of abundance fitness has been reported for the following variant? T54C
-0.182

What value of abundance fitness has been reported for the following variant? Q28C
0.018

What value of abundance fitness has been reported for the following variant? P37Y
-0.451

What value of abundance fitness has been reported for the following variant? C2N
-0.156

What value of abundance fitness has been reported for the following variant? I11T
-0.099
